Data provenance: PubChem BioAssay (NCI)

assay: NCI Yeast Anticancer Drug Screen. Data for the sgs1 mgt1 strain (AID 161);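 note: 0% = growth of cultures given vehicle only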; conditions: S. cerevisiae sgs1 mgt1 strain; at 50.0 µM unless noted
This is part of a sample that, as a whole, favours compounds with a hit. Of some 79,000 tested, about 15% had one in any assay. Active and inactive are the calls of the source. Cut-off read from the data, not from the text of the source: active = growth inhibition above about 70%; inactive = the rest.
Classes used: true (1) (active), false (0) (inactive)

[
  {
    "compound": "COc1ccc(/C=N/NC(=S)NN)cc1",
    "assigned_class": "false (0)"
  },
  {
    "compound": "CCOC(=O)c1cc2ccccc2cc1N=N",
    "assigned_class": "false (0)"
  },
  {
    "compound": "CN(c1ccccc1)c1c(Cl)c(=O)oc2c1ccc1nc(-c3ccccc3)sc12",
    "assigned_class": "false (0)"
  },
  {
    "compound": "O=C(NCCCl)NC1C(O)OC(CO)C(O)C1O (centres undefined)",
    "assigned_class": "true (1)"
  },
  {
    "compound": "CNC(=O)NC(c1ccc(F)cc1)c1cc2c(cc1O)OCO2 (centres undefined)",
    "assigned_class": "false (0)"
  },
  {
    "compound": "Cn1nc2ccc3nccc(N4CCN(CCO)CC4)c3c2n1",
    "assigned_class": "false (0)"
  },
  {
    "compound": "O=S(=O)(O)c1cc(O)c(S(=O)(=O)O)cc1O",
    "assigned_class": "false (0)"
  },
  {
    "compound": "CCOC(OCC)c1ccc(OC)c(OC)c1",
    "assigned_class": "false (0)"
  },
  {
    "compound": "Cc1nccn1C(/C(=N/O)c1ccccc1)c1ccccc1 (centres undefined)",
    "assigned_class": "false (0)"
  },
  {
    "compound": "CCOC(=O)C(=CNC(=S)Nc1c(CC)cccc1CC)C(=O)OCC",
    "assigned_class": "false (0)"
  },
  {
    "compound": "O=C(Nc1ccc(-c2cn3ccccc3n2)cc1)c1ccccc1O",
    "assigned_class": "false (0)"
  },
  {
    "compound": "NC(=S)N/N=C1\\CCCc2ccccc21",
    "assigned_class": "false (0)"
  },
  {
    "compound": "Cn1cc(C(=O)c2ccccc2)cc(C(=O)c2ccccc2)c1=O",
    "assigned_class": "false (0)"
  },
  {
    "compound": "O=C(O)CCCCCCC(=O)O",
    "assigned_class": "false (0)"
  },
  {
    "compound": "N#CCN1CCCCCC1",
    "assigned_class": "false (0)"
  },
  {
    "compound": "CC(=O)Nc1ccc(S(=O)(=O)N/N=C(/C)c2ccccc2)cc1",
    "assigned_class": "false (0)"
  },
  {
    "compound": "O=C(CO[N+](=O)[O-])OC/C=C/c1ccccc1",
    "assigned_class": "false (0)"
  },
  {
    "compound": "O=C(O)C1(C(=O)O)CCCCC1.[NH2-].[NH2-].[Pt+2]",
    "assigned_class": "false (0)"
  },
  {
    "compound": "O=C1COC(c2ccccc2O)=NN1Cc1ccccc1",
    "assigned_class": "false (0)"
  },
  {
    "compound": "Cc1ccnc(NC#N)n1",
    "assigned_class": "false (0)"
  },
  {
    "compound": "CC(=O)N(CCC(C)C)CCC(C)C",
    "assigned_class": "false (0)"
  },
  {
    "compound": "N#C/C(=C\\C1CCCCC1Cl)C1CCC([N+](=O)[O-])CC1 (centres undefined)",
    "assigned_class": "false (0)"
  },
  {
    "compound": "CN(Cc1ccccc1Cl)C(=S)NC1CCCCC1",
    "assigned_class": "true (1)"
  },
  {
    "compound": "CCC(=O)OC(CCC1CCCO1)CCC1CCCO1 (centres undefined)",
    "assigned_class": "false (0)"
  },
  {
    "compound": "O=c1[nH]c(Br)nc2c(N3CCCCC3)c[nH]c12",
    "assigned_class": "false (0)"
  },
  {
    "compound": "O=C1NC(=S)N/C1=C\\c1ccc(Cl)cc1",
    "assigned_class": "false (0)"
  },
  {
    "compound": "CC1=CP(=O)(c2ccccc2)CC1 (centres undefined) (tested in a mixture with another compound)",
    "assigned_class": "false (0)"
  },
  {
    "compound": "CCCC(C)C(=O)OCc1ccccc1 (centres undefined)",
    "assigned_class": "false (0)"
  },
  {
    "compound": "CC1=C(c2ccccc2)C(c2ccccc2)=C(C)C1=NNc1ccc([N+](=O)[O-])cc1[N+](=O)[O-]",
    "assigned_class": "false (0)"
  }
]
